Readings of mass density for the listed compounds
Settings: 293.15 K; 15000 kPa; Liquid
± gives the expanded uncertainty stated by the source.
Write your answer as a measured quantity: the number, then the unit.

# annotated cases, reported mass density shown
>>> measurement("CCn1cc[n+](C)c1.O=S(=O)([N-]S(=O)(=O)C(F)(F)F)C(F)(F)F")
"1536 ± 6 kg/m3"
>>> measurement("CCCCCCCCn1cc[n+](C)c1.O=S(=O)([N-]S(=O)(=O)C(F)(F)F)C(F)(F)F")
"1338 ± 4 kg/m3"
>>> measurement("CCn1cc[n+](C)c1.F[B-](F)(F)F [1-ethyl-3-methylimidazolium tetrafluoroborate]")
"1311 ± 3 kg/m3"

Moving on to another compound below.
Ask: GET /values?readout=mass density&item= CCCCCCCn1cc[n+](C)c1.O=S(=O)([N-]S(=O)(=O)C(F)(F)F)C(F)(F)F
Reply: 1363 ± 5 kg/m3

* * *

Conditions: 393.15 K; 4000 kPa; Liquid
ASSAY_READOUT: mass density (kg/m3)
The reply should be a number in kg/m3, with the unit left off.

Use these answered entries as a reference point.
>>> measurement("CCCCCCCCn1cc[n+](C)c1.O=S(=O)([N-]S(=O)(=O)C(F)(F)F)C(F)(F)F")
1240
>>> measurement("CCn1cc[n+](C)c1.F[B-](F)(F)F [1-ethyl-3-methylimidazolium tetrafluoroborate]")
1231
>>> measurement("CCn1cc[n+](C)c1.O=S(=O)([N-]S(=O)(=O)C(F)(F)F)C(F)(F)F")
1427

Ask: Item CCCCCCCn1cc[n+](C)c1.O=S(=O)([N-]S(=O)(=O)C(F)(F)F)C(F)(F)F has what recorded mass density?
Reply: 1265

* * *

Property: mass density; scope: individual molecules
Conditions: 393.15 K; 25000 kPa; Liquid
// units = kg/m3; emit number, no label

Answered cases to consult:
>>> measurement("CCn1cc[n+](C)c1.O=S(=O)([N-]S(=O)(=O)C(F)(F)F)C(F)(F)F")
1448
>>> measurement("CCn1cc[n+](C)c1.F[B-](F)(F)F [1-ethyl-3-methylimidazolium tetrafluoroborate]")
1243
>>> measurement("CCCCCCCCn1cc[n+](C)c1.O=S(=O)([N-]S(=O)(=O)C(F)(F)F)C(F)(F)F")
1261

Ask: Endpoint output: mass density of CCCCCCCn1cc[n+](C)c1.O=S(=O)([N-]S(=O)(=O)C(F)(F)F)C(F)(F)F . Value?
Reply: 1285

* * *

Details: 333.15 K; 3000 kPa; Liquid
Numbers after ± are expanded uncertainties.
ASSAY_READOUT: mass density
Give me the value, and tack the unit on after it.

Example results:
>>> measurement("CCCCCCCCn1cc[n+](C)c1.O=S(=O)([N-]S(=O)(=O)C(F)(F)F)C(F)(F)F")
"1289 ± 3 kg/m3"
>>> measurement("CCn1cc[n+](C)c1.O=S(=O)([N-]S(=O)(=O)C(F)(F)F)C(F)(F)F")
"1484 ± 4 kg/m3"

Ask: What value of mass density has been recorded for this entry: CCCCCCCn1cc[n+](C)c1.O=S(=O)([N-]S(=O)(=O)C(F)(F)F)C(F)(F)F
Reply: 1316 ± 3 kg/m3

Ask: Another molecule to check: CCn1cc[n+](C)c1.F[B-](F)(F)F [1-ethyl-3-methylimidazolium tetrafluoroborate]
Reply: 1273 ± 3 kg/m3
